Target: cynomolgus monkey (cyno) TIGIT protein (cynomolgus monkey, UniProt A0A7N9I9V4 89-209)
Sequence (A0A7N9I9V4 entry or part of it): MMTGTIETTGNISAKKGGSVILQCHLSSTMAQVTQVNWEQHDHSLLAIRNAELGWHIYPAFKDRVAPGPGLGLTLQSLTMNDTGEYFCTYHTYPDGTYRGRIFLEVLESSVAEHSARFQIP
Assay: SPR, monovalent affinity
quantity_measured: pKd
The read-out pKd is expressed as -log10 of concentration in moles per litre.

Query h7E7.L1H1 (antibody, V domains shown, First humanized version; FR/HVR pieces in order; also called h1.7E7.L1H1) VH: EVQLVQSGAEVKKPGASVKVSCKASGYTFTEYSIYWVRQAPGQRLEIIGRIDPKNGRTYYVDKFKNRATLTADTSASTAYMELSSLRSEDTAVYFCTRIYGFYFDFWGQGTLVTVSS VL: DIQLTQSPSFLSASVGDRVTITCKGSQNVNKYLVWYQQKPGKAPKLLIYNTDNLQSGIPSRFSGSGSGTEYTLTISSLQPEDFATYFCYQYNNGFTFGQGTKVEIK yields pKd of 9.29
